Molecular target: human GPR84 receptor (Homo sapiens, UniProt Q9NQS5)
Construct: host or cells: HEK293, transiently transfected
Sequence (Q9NQS5 whole entry): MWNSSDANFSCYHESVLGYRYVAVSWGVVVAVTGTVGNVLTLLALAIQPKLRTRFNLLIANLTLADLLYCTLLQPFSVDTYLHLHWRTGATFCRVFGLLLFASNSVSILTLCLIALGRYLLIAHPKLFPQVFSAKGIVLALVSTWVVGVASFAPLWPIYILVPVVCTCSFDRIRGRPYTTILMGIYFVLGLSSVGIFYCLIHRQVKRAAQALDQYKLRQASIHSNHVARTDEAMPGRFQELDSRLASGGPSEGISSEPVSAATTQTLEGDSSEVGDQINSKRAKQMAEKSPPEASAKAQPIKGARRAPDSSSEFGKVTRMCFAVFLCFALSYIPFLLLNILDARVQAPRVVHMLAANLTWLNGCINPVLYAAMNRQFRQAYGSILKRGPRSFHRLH
Test: Gαi biosensor BRET assay (GPR84 antagonism vs agonist ZQ-16)
Format: cell-based
Conditions: tested at 2 μM (concentration code A); HEK293 cells; 200 nmol/L agonist ZQ-16
Below, each of the molecules is paired with its reported inhibition at 2 µM value.
MEASURE: inhibition at 2 µM

>>> df
                                    molecule                               test_target  result
 0  Cc1cc(OCC(=O)N2CCC[C@H]2C2CC2)cc(=O)n1[C@H](C)c1ccc(C#CC2CC2)cc1 [Compound I-308]  human GPR84 receptor (Homo sapiens, UniProt Q9NQS5)   > 75%
 1  Cc1cc(OCC(=O)N(C)C)cc(=O)n1[C@H](C)c1ccc(C#CC2CC2)c(Cl)c1 [Compound I-29]  human GPR84 receptor (Homo sapiens, UniProt Q9NQS5)   > 75%
 2  Cc1cc(OCC(=O)N(C)C)cc(=O)n1[C@H](C)c1ccc(C#CC2CC2(F)F)c(F)c1 (single isomer, unassigned) [Compound I-83]  human GPR84 receptor (Homo sapiens, UniProt Q9NQS5)   > 75%
 3  Cc1cc(OCC(=O)N2CC3(CC3)C2)cc(=O)n1[C@H](C)c1ccc(C#CC2CC2)cc1 [Compound I-344]  human GPR84 receptor (Homo sapiens, UniProt Q9NQS5)   > 75%
 4  Cc1cc(OCC(=O)N2CC[C@@H](C(=O)O)C2)cc(=O)n1[C@H](C)c1ccc(C#CC2CC2)cc1 [Compound I-250]  human GPR84 receptor (Homo sapiens, UniProt Q9NQS5)   > 75%
 5  Cc1cc(OCC(=O)N2CC[C@H](C(=O)O)C2)cc(=O)n1[C@H](C)c1ccc(C#CC2CC2)cc1 [Compound I-251]  human GPR84 receptor (Homo sapiens, UniProt Q9NQS5)   > 75%
 6  Cc1cc(OCc2ncnn2C)cc(=O)n1[C@H](C)c1ccc(C#CC2CC2)cc1 [Compound I-329]  human GPR84 receptor (Homo sapiens, UniProt Q9NQS5)   > 75%
 7  Cc1nc(OCC(=O)N(C)C)cc(=O)n1[C@H](C)c1ccc(C#CC2CC2)cc1 [Compound I-217]  human GPR84 receptor (Homo sapiens, UniProt Q9NQS5)   > 75%
 8  Cc1cc(OCC(=O)N2CCOCC2)cc(=O)n1[C@H](C)c1ccc(C#CC2CC2)cc1 [Compound I-3]  human GPR84 receptor (Homo sapiens, UniProt Q9NQS5)   > 75%
 9  Cc1cc(OCC(=O)N2CCCC2)cc(=O)n1[C@H](C)c1ccc(C#CC2CC2)cc1 [Compound I-2]  human GPR84 receptor (Homo sapiens, UniProt Q9NQS5)   > 75%
10  Cc1cc(OCC(=O)N2CC[C@@H](C#N)C2)cc(=O)n1[C@H](C)c1ccc(C#CC2CC2)cc1 [Compound I-309]  human GPR84 receptor (Homo sapiens, UniProt Q9NQS5)   > 75%
11  Cc1cc(OCC(=O)N2CCC[C@H]2CO)cc(=O)n1[C@H](C)c1ccc(C#CC2CC2)cc1 [Compound I-248]  human GPR84 receptor (Homo sapiens, UniProt Q9NQS5)   > 75%
